# Test system: type 4 phosphodiesterases
# assay_remarks: Inhibition of type 4 phosphodiesterase enzymatic activity (cytosolic preparation from U937 cells)
# Assay type: biochemical
# measurement_context: PDE4 from cytosolic preparation of human cell line U937; inhibitor concentration range 0.1 to 100 µM
Documented IC50 across a set of compounds
Returns: string containing the number followed by the unit.

compound	IC50
COc1cc2c3c(n1)C(c1ccccc1)=NC(NC(=O)c1cccnc1)C(=O)N3CC2 (racemic) [racemate of compound of Example 1]	6.1 µM
COc1cc2c3c(n1)C(c1ccccc1)=NC(NC(=O)c1cccnc1)C(=O)N3CC2 (stereo not drawn) [second enantiomer (Rt = 8.15 min) of compound of Example 1]	73 µM

Turning to the following compound.
[ask] Annotate the compound COc1cc2c3c(n1)C(c1ccccc1)=NC(NC(=O)c1cccnc1)C(=O)N3CC2 (stereo not drawn) [first enantiomer (Rt=5.79 min) of compound of Example 1] with its measured IC50.
[reply] 4.3 µM
